# Ki annotations
target or system: δ-opioid receptor (Rattus norvegicus)
Construct: the forebrains are homogenized in Tris buffer in a Teflon®-glass homogenizer; from tissue; host or cells: rat (male Wistar) forebrain, particulate membrane preparation
protocol notes: Rat brain δ-opioid receptor binding assay
measurement context: rat forebrain particulate preparation, [3H]DPDPE, 25° C.; read-out: Ki (nM) δ
measure: Ki (nM)

molecular string: Cc1ccccc1CN1C2CCC1CC(=C(c1ccccc1)c1ccsc1)C2
target or system: δ-opioid receptor (Rattus norvegicus)
unit: nM
endpoint value: 193
--
molecular string: Clc1ccccc1CN1C2CCC1CC(=C(c1ccccc1)c1ccsc1)C2
target or system: δ-opioid receptor (Rattus norvegicus)
unit: nM
endpoint value: 229
--
molecular string: c1ccc(CCN2C3CCC2CC(=C(c2ccccc2)c2ccsc2)C3)cc1
target or system: δ-opioid receptor (Rattus norvegicus)
unit: nM
endpoint value: 903
--
molecular string: Oc1cccc(C(=C2CC3CCC(C2)N3CCc2ccccc2)c2ccsc2)c1
target or system: δ-opioid receptor (Rattus norvegicus)
unit: nM
endpoint value: 437

====

target or system: δ-opioid receptor (Rattus norvegicus, UniProt P33533)
Construct: the forebrains are homogenized in Tris buffer in a Teflon®-glass homogenizer; from tissue; host or cells: rat (male Wistar) forebrain, particulate membrane preparation
Sequence (P33533 whole entry): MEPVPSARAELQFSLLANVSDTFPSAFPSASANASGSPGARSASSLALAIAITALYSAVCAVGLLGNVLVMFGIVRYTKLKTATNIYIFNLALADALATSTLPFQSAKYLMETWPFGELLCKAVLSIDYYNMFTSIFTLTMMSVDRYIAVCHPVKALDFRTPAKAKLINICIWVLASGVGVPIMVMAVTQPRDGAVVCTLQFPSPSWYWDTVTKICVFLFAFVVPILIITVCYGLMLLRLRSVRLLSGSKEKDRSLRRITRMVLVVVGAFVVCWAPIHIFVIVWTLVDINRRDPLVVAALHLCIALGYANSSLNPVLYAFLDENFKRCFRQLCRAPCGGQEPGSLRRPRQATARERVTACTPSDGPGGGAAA
protocol notes: Rat brain δ-opioid receptor binding assay
measurement context: ratio of Ki μ to Ki δ, rat brain
Description: Rat Brain δ-Opioid Receptor Binding Assay Male, Wistar rats (150-250 g, VAF, Charles River, Kingston, N.Y.) are killed by cervical dislocation, and their brains removed and placed immediately in ice cold Tris HCl buffer (50 mM, pH 7.4). […] The tubes and filters are rinsed three times with 4 mL of 10 mM HEPES (pH 7.4), and the radioactivity associated with the filter circles determined using Formula 989 scintillation fluid (New England Nuclear, Boston, Mass.) in a scintillation counter. […]
Criterion: μ/δ (ratio of the μ-opioid receptor binding to the δ-opioid receptor binding) strictly less than 8. Met: yes. Not met: no.

molecular string: c1ccc(CCN2C3CCC2CC(=C(c2ccccc2)c2ccsc2)C3)cc1
class: yes
//
molecular string: C=CCN1C2CCC1CC(=C(c1ccsc1)c1cccc(O)c1)C2
class: no
//
molecular string: Oc1ccc(C(=C2CC3CCC(C2)N3Cc2cccs2)c2ccsc2)cc1
class: no
//
molecular string: Oc1ccc(C(=C2CC3CCC(C2)N3Cc2ccccc2Cl)c2ccsc2)cc1
class: yes
//
molecular string: c1ccc(C(=C2CC3CCC(C2)N3Cc2cccs2)c2ccsc2)cc1
class: yes
//
molecular string: CC(C)=CCN1C2CCC1CC(=C(c1ccccc1)c1ccsc1)C2
class: no
//
molecular string: Oc1cccc(C(=C2CC3CCC(C2)N3Cc2ccccc2Cl)c2ccsc2)c1
class: no
//
molecular string: Cc1ccc(CN2C3CCC2CC(=C(c2ccsc2)c2cccc(O)c2)C3)s1
class: yes
//
molecular string: Cc1ccc(CN2C3CCC2CC(=C(c2ccc(O)cc2)c2ccsc2)C3)s1
class: no
//
molecular string: Cc1ccccc1CN1C2CCC1CC(=C(c1ccc(O)cc1)c1ccsc1)C2
class: yes
//
molecular string: CC(C)=CCN1C2CCC1CC(=C(c1ccc(O)cc1)c1ccsc1)C2
class: no
//
molecular string: Oc1cccc(C(=C2CC3CCC(C2)N3Cc2cccs2)c2ccsc2)c1
class: no
//
molecular string: Cc1ccsc1CN1C2CCC1CC(=C(c1ccc(O)cc1)c1ccsc1)C2
class: yes
//
molecular string: Cc1ccc(CN2C3CCC2CC(=C(c2ccccc2)c2ccsc2)C3)s1
class: no
//
molecular string: Cc1ccccc1CN1C2CCC1CC(=C(c1ccccc1)c1ccsc1)C2
class: no
//
molecular string: Oc1cccc(C(=C2CC3CCC(C2)N3)c2ccsc2)c1
class: yes
//
molecular string: Oc1ccc(C(=C2CC3CCC(C2)N3CCc2ccccc2)c2ccsc2)cc1
class: yes
//
molecular string: Cc1ccsc1CN1C2CCC1CC(=C(c1ccsc1)c1cccc(O)c1)C2
class: yes

====

target or system: δ-opioid receptor (Rattus norvegicus)
Construct: the forebrains are homogenized in Tris buffer in a Teflon®-glass homogenizer; from tissue; host or cells: rat (male Wistar) forebrain, particulate membrane preparation
protocol notes: Rat brain δ-opioid receptor binding assay
Criterion: Ki strictly less than 6 nM. Met: True. Not met: False.

molecular string: Cc1ccc(CN2C3CCC2CC(=C(c2ccc(O)cc2)c2ccsc2)C3)s1
class: False

molecular string: c1ccc(C(=C2CC3CCC(C2)N3Cc2cccs2)c2ccsc2)cc1
class: False

molecular string: c1ccc(C(=C2CC3CCC(C2)N3)c2ccsc2)cc1
class: False

molecular string: Oc1cccc(C(=C2CC3CCC(C2)N3)c2ccsc2)c1
class: False

molecular string: Cc1ccc(CN2C3CCC2CC(=C(c2ccccc2)c2ccsc2)C3)s1
class: False

molecular string: Oc1ccc(C(=C2CC3CCC(C2)N3Cc2ccccc2Cl)c2ccsc2)cc1
class: False

molecular string: Oc1cccc(C(=C2CC3CCC(C2)N3Cc2cccs2)c2ccsc2)c1
class: True

molecular string: Oc1cccc(C(=C2CC3CCC(C2)N3Cc2ccccc2Cl)c2ccsc2)c1
class: True

====

target or system: δ-opioid receptor (Rattus norvegicus, UniProt P33533)
Construct: the forebrains are homogenized in Tris buffer in a Teflon®-glass homogenizer; from tissue; host or cells: rat (male Wistar) forebrain, particulate membrane preparation
protocol notes: Rat brain δ-opioid receptor binding assay
pKi: −log10 of the molar value.

molecular string: Oc1ccc(C(=C2CC3CCC(C2)N3CCc2ccccc2)c2ccsc2)cc1
target or system: δ-opioid receptor (Rattus norvegicus, UniProt P33533)
pKi: 6.40
--
molecular string: Oc1ccc(C(=C2CC3CCC(C2)N3Cc2cccs2)c2ccsc2)cc1
target or system: δ-opioid receptor (Rattus norvegicus, UniProt P33533)
pKi: 8.53
--
molecular string: CC(C)=CCN1C2CCC1CC(=C(c1ccccc1)c1ccsc1)C2
target or system: δ-opioid receptor (Rattus norvegicus, UniProt P33533)
pKi: 7.68
--
molecular string: Cc1ccc(CN2C3CCC2CC(=C(c2ccsc2)c2cccc(O)c2)C3)s1
target or system: δ-opioid receptor (Rattus norvegicus, UniProt P33533)
pKi: 8.78

====

target or system: μ-opioid receptor (Rattus norvegicus, UniProt P33535)
Construct: the forebrains are homogenized in Tris buffer in a Teflon®-glass homogenizer; from tissue; host or cells: rat (male Wistar) forebrain, particulate membrane preparation
Sequence (P33535 whole entry): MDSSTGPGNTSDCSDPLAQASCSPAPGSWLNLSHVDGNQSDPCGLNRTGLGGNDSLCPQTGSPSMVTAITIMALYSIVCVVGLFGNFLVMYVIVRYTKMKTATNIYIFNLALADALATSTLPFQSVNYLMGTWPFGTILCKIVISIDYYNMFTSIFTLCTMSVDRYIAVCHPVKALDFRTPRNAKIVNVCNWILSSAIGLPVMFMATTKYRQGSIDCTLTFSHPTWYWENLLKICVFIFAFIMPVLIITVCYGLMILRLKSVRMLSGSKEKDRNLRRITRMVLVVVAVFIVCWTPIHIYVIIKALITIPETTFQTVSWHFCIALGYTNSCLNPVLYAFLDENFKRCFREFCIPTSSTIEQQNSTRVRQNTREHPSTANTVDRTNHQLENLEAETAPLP
protocol notes: Rat brain μ-opioid receptor binding assay
measure: Ki

molecular string: Oc1cccc(C(=C2CC3CCC(C2)N3CCc2ccccc2)c2ccsc2)c1
measure: Ki
endpoint value: 37 nM
//
molecular string: Cc1ccc(CN2C3CCC2CC(=C(c2ccsc2)c2cccc(O)c2)C3)s1
measure: Ki
endpoint value: 12.6 nM
//
molecular string: Oc1ccc(C(=C2CC3CCC(C2)N3Cc2cccs2)c2ccsc2)cc1
measure: Ki
endpoint value: 89.2 nM
//
molecular string: Oc1ccc(C(=C2CC3CCC(C2)N3Cc2ccccc2Cl)c2ccsc2)cc1
measure: Ki
endpoint value: 36.5 nM
//
molecular string: CC(C)=CCN1C2CCC1CC(=C(c1ccsc1)c1cccc(O)c1)C2
measure: Ki
endpoint value: 7.1 nM
//
molecular string: CC(C)=CCN1C2CCC1CC(=C(c1ccc(O)cc1)c1ccsc1)C2
measure: Ki
endpoint value: 93 nM
